These measurements were taken from patent US11851449B2.

Can you tell me inhibition at 1 µM for the items I'm about to list?
Target: RORγt (Homo sapiens)
Experiment: RORγt binding test (TR-FRET, fluorescent-labeled cholesterol)
Settings: read-out: binding inhibitory rate (%) of fluorescent-labeled cholesterol to RORγt at test compound 1 μM
Give bare numbers, in %.

Worked examples, 3 compounds total:
1. COc1ccc(C(NC(=O)C2CNC(=O)C2)C(=O)Nc2ccc([Si](C)(C)C)cc2)cc1 (stereo not shown) = 101
2. COc1ccc([C@@H](NC(=O)N2CC[C@@H](O)C2)C(=O)Nc2ccc([Si](C)(C)C)c(F)c2)cc1 = 101
3. COCc1ccc(C(NC(=O)Cn2cnccc2=O)C(=O)Nc2cc(F)c([Si](C)(C)C)c(F)c2)cc1 (stereo not shown) = 101

Enquiry: Request the reported inhibition at 1 µM associated with COc1ccc(C(NC(=O)Cn2ncc3ccccc32)C(=O)Nc2cc(F)c([Si](C)(C)C)cc2F)cc1 (stereo not shown)
Return: 99.5

---

Can you tell me inhibition at 1 µM for the items I'm about to list?
Target: RORγt (Homo sapiens)
Experiment: RORγt binding test (TR-FRET, fluorescent-labeled cholesterol)
Conditions: read-out: binding inhibitory rate (%) of fluorescent-labeled cholesterol to RORγt at test compound 1 μM
Give bare numbers, in %.

1. COCc1ccc([C@@H](NC(=O)C2CC2(F)F)C(=O)Nc2ccc([Si](C)(C)C)c(F)c2)cc1 (some centres unmarked) = 101
2. COc1ccc(C(NC(=O)C2CNC(=O)C2)C(=O)Nc2ccc([Si](C)(C)C)c(F)c2)cc1 (centres unmarked) = 100
3. COCc1ccc([C@@H](NC(=O)Cc2cc(O)no2)C(=O)Nc2ccc([Si](C)(C)C)c(F)c2)cc1 = 102

Count: 2. Required value per item: inhibition at 1 µM.
1. COCc1ccc([C@@H](NC(=O)C2CC(F)(F)C2)C(=O)Nc2ccc([Si](C)(C)C)c(F)c2)cc1
2. COCc1ccc([C@@H](NC(=O)CCC#N)C(=O)Nc2cc(F)c([Si](C)(C)C)c(F)c2)cc1

Return:
102
103

---

Target: RORγt (Homo sapiens)
Assay: Jurkat reporter test (human IL-17 ROR response element luciferase reporter)
Format: cell-based
Details: Jurkat, read-out: luminescence level inhibitory rate (%) at test compound 3 μM
Can you tell me inhibition at 3 µM for the items I'm about to list?
One number for each entry, in %.

Count: 6. Required value per item: inhibition at 3 µM.
1. COCc1ccc([C@@H](NC(=O)CCO)C(=O)Nc2cc(F)c([Si](C)(C)C)c(F)c2)cc1
2. Cc1nnc(CC(=O)NC(C(=O)Nc2cc(F)c([Si](C)(C)C)c(F)c2)C2CCOCC2)o1 (stereo not shown)
3. COCc1ccc([C@@H](NC(=O)Cc2nnc(C)o2)C(=O)Nc2ccc([Si](C)(C)C)c(F)c2)cc1
4. COCc1ccc([C@@H](NC(=O)N2CC[C@@H](F)C2)C(=O)Nc2ccc([Si](C)(C)C)c(F)c2)cc1
5. CN(C(=O)c1cc(O)no1)C(C(=O)Nc1cc(F)c([Si](C)(C)C)c(F)c1)C1CCOCC1 (stereo not shown)
6. Cn1ncc2cc(C(NC(=O)[C@@H]3CNC(=O)C3)C(=O)Nc3ccc([Si](C)(C)C)c(F)c3)ccc21 (mixture of isomers)

Return:
[99.2, 98.1, 98.5, 99.8, 101, 100]

Count: 4. Required value per item: inhibition at 3 µM.
1. COCc1ccc(C(NC(=O)C2CNC(=O)C2)C(=O)Nc2ccc([Si](C)(C)C)c(F)c2)cc1 (stereo not shown)
2. C[Si](C)(C)c1c(F)cc(NC(=O)C(NC(=O)Cn2cnccc2=O)C2CCOCC2)cc1F (stereo not shown)
3. COCc1ccc([C@@H](NC(=O)Cn2ccc(=O)cc2)C(=O)Nc2ccc([Si](C)(C)C)c(F)c2)cc1
4. COc1ccc([C@H](C(=O)Nc2ccc([Si](C)(C)C)c(F)c2)N(C)C(=O)c2cc(O)no2)cc1

Return:
1: 99.1; 2: 97.3; 3: 96; 4: 100

Count: 3. Required value per item: inhibition at 3 µM.
1. COCc1ccc([C@@H](NC(=O)[C@H]2CNC(=O)C2)C(=O)Nc2cc(F)c([Si](C)(C)C)cc2F)cc1
2. COCc1ccc([C@@H](NC(=O)CCS(C)(=O)=O)C(=O)Nc2ccc([Si](C)(C)C)c(F)c2)cc1
3. COCc1ccc([C@@H](NC(=O)Cn2ccc(=O)cn2)C(=O)Nc2ccc([Si](C)(C)C)c(F)c2)cc1

Return:
1: 98.6; 2: 100; 3: 99.7

---

Molecular target: RORγt (Homo sapiens, UniProt P51449)
Experiment: RORγt binding test (TR-FRET, fluorescent-labeled cholesterol)
Conditions: read-out: binding inhibitory rate (%) of fluorescent-labeled cholesterol to RORγt at test compound 1 μM
Can you tell me inhibition at 1 µM for the items I'm about to list?

Count: 7. Required value per item: inhibition at 1 µM.
1. COCc1ccc([C@@H](NC(=O)Cn2ccc(=O)cc2)C(=O)Nc2ccc([Si](C)(C)C)c(F)c2)cc1
2. CC(C)(C)c1ccc(NC(=O)[C@H](NC(=O)CC(F)(F)F)C2CCOCC2)cc1Cl
3. COCc1ccc([C@@H](NC(=O)CN2C(=O)CNC2=O)C(=O)Nc2ccc([Si](C)(C)C)c(F)c2)cc1
4. CN(C(=O)c1cc(O)no1)C(C(=O)Nc1cc(F)c([Si](C)(C)C)c(F)c1)C1CCOCC1 (stereo not shown)
5. COc1ccc([C@@H](NC(=O)c2cc(O)no2)C(=O)Nc2ccc([Si](C)(C)C)c(F)c2)cc1
6. Cc1nnc(CC(=O)NC(C(=O)Nc2cc(F)c([Si](C)(C)C)c(F)c2)C2CCOCC2)o1 (stereo not shown)
7. COc1ccc(C(NC(=O)Cc2cnn(C)c2)C(=O)Nc2ccc([Si](C)(C)C)cc2)cc1 (stereo not shown)

Return:
102%
100%
99.9%
102%
100%
102%
101%

---

Molecular target: RORγt (Homo sapiens)
Experiment: Jurkat reporter test (human IL-17 ROR response element luciferase reporter)
Format: cell-based
Conditions: Jurkat, read-out: luminescence level inhibitory rate (%) at test compound 3 μM
Can you tell me inhibition at 3 µM for the items I'm about to list?
One number for each entry, in %.

1. COc1ccc([C@@H](NC(=O)N2CC[C@H](O)C2)C(=O)Nc2ccc([Si](C)(C)C)c(F)c2)cc1 [Example 64] = 98.7
2. COc1ccc(C(NC(=O)N2CC(O)C2)C(=O)Nc2ccc([Si](C)(C)C)c(F)c2)cc1 (stereo not drawn) [Example 30] = 99.8

Enquiry: Request the reported inhibition at 3 µM associated with COCc1ccc([C@@H](NC(=O)N2CC[C@H](O)C2)C(=O)Nc2ccc([Si](C)(C)C)c(F)c2)cc1 [Example 65]
Return: 98.5

---

Molecular target: RORγt (Homo sapiens)
Assay: Jurkat reporter test (human IL-17 ROR response element luciferase reporter)
Format: cell-based
Details: test compound 3 μM; Jurkat cells; read-out: luminescence level inhibitory rate (%) at test compound 3 μM
measuredAttribute: inhibition at 3 µM (%)
Give bare numbers, in %.

1. CC(C)(C)c1ccc(NC(=O)[C@H](NC(=O)CC(F)(F)F)C2CCOCC2)cc1Cl [Example 9] = 97.6
2. COCc1ccc(C(NC(=O)[C@@H]2CNC(=O)C2)C(=O)Nc2ccc(C(C)(C)C)c(Cl)c2)cc1 (stereo partly shown) [Example 104] = 96.1
3. Cn1ncc2cc([C@@H](NC(=O)Cc3cc(O)no3)C(=O)Nc3cc(F)c(C(C)(C)C)c(F)c3)ccc21 [Example 419] = 101

Now turn to the next compound.
Enquiry: Form field - read-out: inhibition at 3 µM; system: RORγt (Homo sapiens); submitted item: COCc1ccc([C@@H](NC(=O)[C@H]2CNC(=O)C2)C(=O)Nc2ccc(C(C)(C)C)c(F)c2)cc1 [Example 102]
Return: 97.8

---

Can you tell me inhibition at 1 µM for the items I'm about to list?
Molecular target: RORγt (Homo sapiens)
Sequence (P51449 1-497 isoform P51449-2): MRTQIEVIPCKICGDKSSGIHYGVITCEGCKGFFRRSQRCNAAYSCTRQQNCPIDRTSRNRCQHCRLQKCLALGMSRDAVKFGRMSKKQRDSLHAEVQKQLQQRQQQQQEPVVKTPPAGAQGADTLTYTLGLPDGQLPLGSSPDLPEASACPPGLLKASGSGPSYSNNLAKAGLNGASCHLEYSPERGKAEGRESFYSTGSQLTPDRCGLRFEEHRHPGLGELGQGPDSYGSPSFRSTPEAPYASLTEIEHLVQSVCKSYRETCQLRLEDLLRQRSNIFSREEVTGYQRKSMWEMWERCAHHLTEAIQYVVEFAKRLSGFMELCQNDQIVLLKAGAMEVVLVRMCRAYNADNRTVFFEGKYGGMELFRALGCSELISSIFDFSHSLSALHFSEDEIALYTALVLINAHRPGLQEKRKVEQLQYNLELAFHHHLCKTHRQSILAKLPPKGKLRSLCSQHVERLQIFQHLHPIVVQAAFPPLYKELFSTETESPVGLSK
Test: RORγt binding test (TR-FRET, fluorescent-labeled cholesterol)
Details: read-out: binding inhibitory rate (%) of fluorescent-labeled cholesterol to RORγt at test compound 1 μM
Procedure: The binding activity of the test compound to RORγt was measured by a time resolved fluorescence resonance energy transfer method (TR-FRET) utilizing histidine-tagged RORγt, fluorescent-labeled cholesterol (BODIPY-cholesterol, AVIVA), and terbium-labeled anti-histidine tag antibody (Invitrogen). First, a test compound diluted with an assay buffer (20 mM Tris-HCl (pH 7.5), 100 mM NaCl, 1 mM DTT, 0.1% BSA) was added to a 384 well plate by 3 μL. […]
Counter-ions that a name gives are not always drawn.

1. COCc1ccc([C@@H](NC(=O)Cn2ccc(=O)cn2)C(=O)Nc2ccc([Si](C)(C)C)c(F)c2)cc1 = 103%

Count: 4. Required value per item: inhibition at 1 µM.
1. COc1ccc(C(NC(=O)C2CNC(=O)C2)C(=O)Nc2ccc([Si](C)(C)C)c(C#N)c2)cc1 (stereo not drawn)
2. C[Si](C)(C)c1ccc(NC(=O)C(NC(=O)[C@@H]2CNC(=O)C2)C2CCC(F)(F)CC2)cc1F (stereo partly drawn)
3. COc1ccc(C(NC(=O)C2CNC(=O)C2)C(=O)Nc2cc(F)c([Si](C)(C)C)c(F)c2)cc1 (stereo not drawn)
4. COCc1ccc([C@@H](NC(=O)CCC(F)F)C(=O)Nc2ccc([Si](C)(C)C)c(F)c2)cc1

Return:
1: 103%; 2: 100%; 3: 101%; 4: 102%

Count: 4. Required value per item: inhibition at 1 µM.
1. COc1ccc(C(NC(=O)Cc2ccn(C)n2)C(=O)Nc2ccc([Si](C)(C)C)cc2)cc1 (stereo not drawn)
2. COCc1ccc([C@@H](NC(=O)CC2CCOCC2)C(=O)Nc2ccc([Si](C)(C)C)c(F)c2)cc1
3. Cn1ncc2cc(C(NC(=O)[C@@H]3CNC(=O)C3)C(=O)Nc3ccc([Si](C)(C)C)c(F)c3)ccc21 (mixture of isomers)
4. COCc1ccc([C@@H](NC(=O)[C@@H]2CNC(=O)C2)C(=O)Nc2ccc(C(C)(C)C)c(F)c2)cc1

Return:
1. 101%
2. 103%
3. 100%
4. 101%

Count: 4. Required value per item: inhibition at 1 µM.
1. COCc1ccc([C@@H](NC(=O)Cn2cnccc2=O)C(=O)Nc2cc(F)c([Si](C)(C)C)c(F)c2)cc1
2. COc1ccc(C(NC(=O)N2CC(O)C2)C(=O)Nc2ccc([Si](C)(C)C)c(F)c2)cc1 (stereo not drawn)
3. COCc1ccc([C@@H](NC(=O)[C@@H]2CNC(=O)C2)C(=O)Nc2cc(F)c([Si](C)(C)C)cc2F)cc1
4. COCc1ccc([C@@H](NC(=O)CS(C)(=O)=O)C(=O)Nc2ccc([Si](C)(C)C)c(F)c2)cc1

Return:
102%
98.5%
102%
103%

Count: 6. Required value per item: inhibition at 1 µM.
1. COCc1ccc([C@@H](NC(=O)c2cc(O)no2)C(=O)Nc2cc(F)c([Si](C)(C)C)cc2F)cc1
2. COCc1ccc([C@@H](NC(=O)CN2CCOCC2)C(=O)Nc2ccc([Si](C)(C)C)c(F)c2)cc1 [Example 97, hydrochloride]
3. COCc1ccc([C@@H](NC(=O)CCC(=O)O)C(=O)Nc2cc(F)c([Si](C)(C)C)c(F)c2)cc1
4. COCc1ccc([C@@H](NC(=O)Cc2cc(O)no2)C(=O)Nc2cc(F)c([Si](C)(C)C)c(F)c2)cc1
5. COCc1ccc(C(NC(=O)Cc2nnc(C)o2)C(=O)Nc2ccc([Si](C)(C)C)c(F)c2)cc1 (stereo not drawn)
6. COCc1ccc(C(C(=O)Nc2ccc([Si](C)(C)C)c(F)c2)N(C)C(=O)c2cc(O)no2)cc1 (stereo not drawn)

Return:
102%
102%
100%
103%
103%
99.5%
